Recorded TGI by entry
# Tested on: SNB-19 CNS
# assay text: NCI tumour cell line growth inhibition, 48 h
quantity measured: TGI

• Fc1ccc(Nc2nc3ccccc3c3occc23)cc1 = 24.1 µM
• CCCCCCCC(=O)[O][Hg][CH2]C1COC([CH2][Hg][O]C(=O)CCCCCCC)CO1 (stereo not drawn) = 29.5 µM
• COc1cccc(-c2c(-c3ccccc3)[nH]c(C)c2C(=O)ONC(=O)c2ccccc2)c1 = 23.8 µM
• CCOC(=O)c1cccnc1C(OC(C)=O)OC(C)=O = > 100 µM
• CCCCCC[C@H](C)NC(=O)c1ccc(Nc2nc3ccccc3c3occc23)cc1 = > 100 µM
• C=C1Cc2cc(OC)c(OC)c(OC)c2-c2ccc(SC)c(=O)cc21 = 5.3 µM
• O=C1/C(=C/c2ccc(Cl)cc2)CSC/C1=C\c1ccc(Cl)cc1 = 17 µM
• Nc1c(F)cc(-c2nc3cc(F)ccc3[se]2)cc1Br = > 100 µM
• O=c1c2ccccc2[nH]c2c(Cl)cc(Cl)c(N3CCCCC3)c12 = 77.9 µM
• C=C(CCCO)[C@@H]1CC[C@@](C)(O)[C@H]1C = > 100 µM
• N#Cc1c(O)c2ccccc2[nH]c1=O = > 100 µM
• COc1ccc(-c2cc(=O)c3c(O)cc(O)cc3o2)c(OC)c1OC = > 100 µM
• CC(=O)/C(C=Nc1c(C)n(C)n(C)c1=O)=C(/O)c1ccccc1 = > 50 µM
• CC(=O)O[C@H]1CC2C=CC3C(CCC31)O2 (stereo partly drawn) = > 100 µM
• O=C(NCCCN1CCN(CCCNC(=O)Nc2cccc3ccccc23)CC1)Nc1cccc2ccccc12 = 48.4 µM
• C#CC1NC(=O)C1N(CC)CC (stereo not drawn) = > 100 µM
• COc1ccc(C(=O)/C=C/c2ccc(OCC(=N)N)cc2)cc1 = 29.2 µM
• CCN1CCC(O)(c2ccc(O)cc2)C(C(=O)c2ccc(O)cc2)C1 (stereo not drawn) = > 100 µM
• COc1ccc(/C=C2\c3cc(OC)c(OC)c(OC)c3CC[C@@H]2O)cc1F = > 100 µM
• COC(=O)/C(=N\NC(N)=O)C(C(=O)C=C(C)C)C(=O)C(=O)Nc1ccc(Cl)c(Cl)c1 (stereo not drawn) = > 100 µM
• COCCn1cc(-c2csc(-c3c[nH]c4ccc(Br)cc34)n2)c2cccnc21 = > 100 µM
• O=c1c2cc(I)ccc2nc(-c2cccs2)n1/N=C/c1ccccc1 = > 100 µM
• Clc1c2ccccc2nc2c1[nH]c1ccccc12 = > 100 µM
